# System: HepG2 cells
# Experiment: Cytotoxicity in HepG2 cells, 4 days, Resazurin assay
# Measurement Conditions: read-out: HepG2 4 days CC50, 4 days, Resazurin
Measured Metric: CC50

• Cc1cc(NC(=O)c2cccc(S(=O)(=O)NC3CC(=O)N(C)C3)c2)ccc1F (racemic) [Compound 179b] = > 25 µM

Request: For Cc1cc(NC(=O)c2cccc(S(=O)(=O)N[C@@H]3CC[C@H](O)C3)c2)ccc1F (single isomer, unassigned) [Compound 145a] , write its CC50.
Result: > 25 µM

* * *

# Experiment: Cytotoxicity in HepG2 cells, 4 days, Resazurin assay
# Measurement Conditions: human
Measured Metric: CC50 at 4 days

Request: Recall and state the measured CC50 at 4 days for CC1(NS(=O)(=O)c2cccc(C(=O)Nc3ccc(F)cc3)c2)CCOCC1 [Compound 83] .
Result: > 25 µM
